# protocol details: self-splicing fitness, log relative to wild type (ln ratio); higher = more splicing; Tetrahymena group I intron in knt gene, E. coli kanamycin selection, DiMSum; sequences stand for … in CUCUCU…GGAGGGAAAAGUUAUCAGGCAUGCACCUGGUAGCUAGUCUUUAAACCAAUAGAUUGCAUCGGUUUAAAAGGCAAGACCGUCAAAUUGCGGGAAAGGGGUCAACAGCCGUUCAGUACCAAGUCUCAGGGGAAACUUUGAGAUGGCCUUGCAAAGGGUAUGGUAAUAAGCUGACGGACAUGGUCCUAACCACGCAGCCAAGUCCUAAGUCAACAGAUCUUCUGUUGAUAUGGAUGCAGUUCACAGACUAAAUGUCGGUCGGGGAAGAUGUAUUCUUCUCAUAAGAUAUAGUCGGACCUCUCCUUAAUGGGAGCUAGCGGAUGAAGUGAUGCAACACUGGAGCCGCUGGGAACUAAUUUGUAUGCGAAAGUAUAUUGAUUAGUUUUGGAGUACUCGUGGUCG;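 further: selection with 25 µg/mL kanamycin versus none on LB agar overnight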
# reported conditions: 30 °C
Listed next: entries and their corresponding self-splicing fitness (ln).

>>> obs_value("CUACAGCAAUAUUACGGUGG")
-4.48

Q) I would be grateful if you could share the reported self-splicing fitness (ln) for "CGCAAGCAAUAUUACGGUGA" .
A) -0.78

Q) I would be grateful if you could share the reported self-splicing fitness (ln) for "UAUGAGCAAUAUUACGUACC" .
A) -2.28

Q) I would be grateful if you could share the reported self-splicing fitness (ln) for "CAGCAGCAAUAUUACGCGUA" .
A) -1.87

Q) I would be grateful if you could share the reported self-splicing fitness (ln) for "GACAAGCAAUAUUACGUGAA" .
A) -1.81

Q) I would be grateful if you could share the reported self-splicing fitness (ln) for "ACGAAGCAAUAUUACGCUAA" .
A) -1.22

Q) I would be grateful if you could share the reported self-splicing fitness (ln) for "GACCAGCAAUAUUACGCCCA" .
A) -0.923

Q) I would be grateful if you could share the reported self-splicing fitness (ln) for "GUCAAGCAAUAUUACGUGCG" .
A) -2.29

Q) I would be grateful if you could share the reported self-splicing fitness (ln) for "CAUGAGCAAUAUUACGUUAC" .
A) -3.24

Q) I would be grateful if you could share the reported self-splicing fitness (ln) for "GGCGAGCAAUAUUACGUCAC" .
A) -3.01

Q) I would be grateful if you could share the reported self-splicing fitness (ln) for "GGCCAGCAAUAUUACGCCUU" .
A) -2.04

Q) I would be grateful if you could share the reported self-splicing fitness (ln) for "CGAGAGCAAUAUUACGAAAU" .
A) -2.81

Q) I would be grateful if you could share the reported self-splicing fitness (ln) for "GACGAGCAAUAUUACGGUGA" .
A) -3.52
